- Test Name: Single-dose pharmacokinetics and brain distribution in rats
- Type: in vivo, male Sprague Dawley rats
- Measurement Conditions: male, Sprague Dawley, rat, brain, ip, 10 mg/kg
Measured Attribute: AUC(0-t) (ng·h/mL)
Quick note: give the figure in ng·h/mL, leave out the unit.

Q) Given COC(=O)[C@@H]1C[C@H](OC(C)=O)C(=O)[C@H]2[C@@]1(C)CC[C@H]1C(=O)O[C@H](c3ccoc3)C[C@]21C [Salvinorin A] , state its recorded AUC(0-t).
A) 13

###

- Test Name: in vitro
- Measurement Conditions: dog, MDCK-MDR1
Measured Attribute: Papp (×10⁻⁶ cm/s)
Please reply with the bare figure in ×10⁻⁶ cm/s and do not write the unit itself.

Q) Return reported Papp; argument: OC[C@@H](O)[C@@H](O)[C@H](O)[C@H](O)CO
A) 3.23

###

- Test Name: Single-dose pharmacokinetics and brain distribution in rats
- Type: in vivo, male Sprague Dawley rats
- Measurement Conditions: male, Sprague-Dawley, rat, plasma, ip, 10 mg/kg
Measured Attribute: Vd/F (L/kg)
Express your answer in L/kg, writing the number without its unit.

Q) Report Vd/F for COC(=O)[C@@H]1C[C@H](OC(C)=O)C(=O)[C@H]2[C@@]1(C)CC[C@H]1C(=O)O[C@H](c3ccoc3)C[C@]21C please.
A) 47.1

###

- Test Name: Single-dose pharmacokinetics and brain distribution in rats
- Type: in vivo, male Sprague Dawley rats
- Measurement Conditions: male, Sprague Dawley, rat, plasma, ip, 10 mg/kg
Measured Attribute: Cmax (ng/mL)
Express the result in ng/mL but write the number alone.

Q) # lookup: Cmax of COC(=O)[C@@H]1C[C@H](OC(C)=O)C(=O)[C@H]2[C@@]1(C)CC[C@H]1C(=O)O[C@H](c3ccoc3)C[C@]21C
A) 345

###

- Test Name: Single-dose pharmacokinetics and brain distribution in rats
- Type: in vivo, male Sprague Dawley rats
- Measurement Conditions: male, Sprague Dawley, rat, plasma and brain, ip, 10 mg/kg
Measured Attribute: Tmax

Q) Requested read-out: Tmax. Entry: COC(=O)[C@@H]1C[C@H](OC(C)=O)C(=O)[C@H]2[C@@]1(C)CC[C@H]1C(=O)O[C@H](c3ccoc3)C[C@]21C [Salvinorin A]
A) 10 to 15 min

###

- Test Name: Single-dose pharmacokinetics and brain distribution in rats
- Type: in vivo, male Sprague Dawley rats
- Measurement Conditions: male, Sprague Dawley, rat, plasma, ip, 10 mg/kg
Measured Attribute: CL/F

Q) Any idea what CL/F was measured for COC(=O)[C@@H]1C[C@H](OC(C)=O)C(=O)[C@H]2[C@@]1(C)CC[C@H]1C(=O)O[C@H](c3ccoc3)C[C@]21C ?
A) 433 mL/min/kg

###

- Test Name: Single-dose pharmacokinetics and brain distribution in rats
- Format: in vivo, male Sprague Dawley rats
- Measurement Conditions: male, Sprague Dawley, rat, plasma, ip, 10 mg/kg
Measured Attribute: AUC(0-inf) (ng·h/mL)
Output spec: scalar in ng·h/mL, unitless text.

Q) Fill blank: measured AUC(0-inf) of the molecule COC(=O)[C@@H]1C[C@H](OC(C)=O)C(=O)[C@H]2[C@@]1(C)CC[C@H]1C(=O)O[C@H](c3ccoc3)C[C@]21C [Salvinorin A] is ____.
A) 410

###

- Test Name: Single-dose pharmacokinetics and brain distribution in rats
- Assay type: in vivo, male Sprague Dawley rats
- Measurement Conditions: male, Sprague Dawley, rat, brain, ip, 10 mg/kg
Measured Attribute: Tmax (min)
Give the value in min but do not write min after it.

Q) So what's the measured Tmax for this one? COC(=O)[C@@H]1C[C@H](OC(C)=O)C(=O)[C@H]2[C@@]1(C)CC[C@H]1C(=O)O[C@H](c3ccoc3)C[C@]21C
A) 10

###

- Test Name: Single-dose pharmacokinetics and brain distribution in rats
- Type: in vivo, male Sprague Dawley rats
- Measurement Conditions: male, Sprague Dawley, rat, brain, ip, 10 mg/kg
Measured Attribute: Cmax (ng/mL)
Only the number, expressed in ng/mL, is required.

Q) GET /values?readout=Cmax&item= COC(=O)[C@@H]1C[C@H](OC(C)=O)C(=O)[C@H]2[C@@]1(C)CC[C@H]1C(=O)O[C@H](c3ccoc3)C[C@]21C [Salvinorin A]
A) 23.9

###

- Test Name: Single-dose pharmacokinetics and brain distribution in rats
- Assay type: in vivo, male Sprague Dawley rats
- Measurement Conditions: male, Sprague Dawley, rat, brain and plasma, ip, 10 mg/kg
Measured Attribute: Kp
Output spec: single numeric token, no unit.

Q) What value of measured Kp is listed for COC(=O)[C@@H]1C[C@H](OC(C)=O)C(=O)[C@H]2[C@@]1(C)CC[C@H]1C(=O)O[C@H](c3ccoc3)C[C@]21C ?
A) 0.05

###

- Test system: P-gp (MDR1)
- Test Name: in vitro
- Measurement Conditions: dog, MDCK-MDR1
Measured Attribute: Papp B→A at 5 μM

Q) Give its Papp B→A at 5 μM value. Item: COC(=O)[C@@H]1C[C@H](OC(C)=O)C(=O)[C@H]2[C@@]1(C)CC[C@H]1C(=O)O[C@H](c3ccoc3)C[C@]21C [Salvinorin A]
A) 40.7 ×10⁻⁶ cm/s

###

- Test Name: Single-dose pharmacokinetics and brain distribution in rats
- Format: in vivo, male Sprague Dawley rats
- Measurement Conditions: male, Sprague-Dawley, rat, brain, ip, 10 mg/kg
Measured Attribute: k el (s⁻¹)
Provide the reading as a plain figure in s⁻¹.

Q) For the compound shown here, COC(=O)[C@@H]1C[C@H](OC(C)=O)C(=O)[C@H]2[C@@]1(C)CC[C@H]1C(=O)O[C@H](c3ccoc3)C[C@]21C , give the reported k el.
A) 3.19e-05

###

- Test Name: Single-dose pharmacokinetics and brain distribution in rats
- Type: in vivo, male Sprague Dawley rats
- Measurement Conditions: male, Sprague Dawley, rat, plasma, ip, 10 mg/kg
Measured Attribute: k el (s⁻¹)
Enter your answer as a number in s⁻¹; do not include the unit.

Q) For the compound COC(=O)[C@@H]1C[C@H](OC(C)=O)C(=O)[C@H]2[C@@]1(C)CC[C@H]1C(=O)O[C@H](c3ccoc3)C[C@]21C , what k el is on record?
A) 0.000153

###

- Test Name: Single-dose pharmacokinetics and brain distribution in rats
- Assay type: in vivo, male Sprague Dawley rats
- Measurement Conditions: male, Sprague Dawley, rat, brain, ip, 10 mg/kg
Measured Attribute: AUC(0-inf) (ng·h/mL)
# unit: ng·h/mL | format: bare number

Q) Looking for the measured AUC(0-inf) of COC(=O)[C@@H]1C[C@H](OC(C)=O)C(=O)[C@H]2[C@@]1(C)CC[C@H]1C(=O)O[C@H](c3ccoc3)C[C@]21C , can you help?
A) 20.6
